# protocol.description: Tmax in Sprague-Dawley rat plasma at 10 mg/kg, po measured upto 480 mins by LC/MS-MS analysis
# Type: ADME, organism-based
result.type: Tmax
Form field: result (number plus unit)

Data request: Return reported Tmax; argument: `COc1ccccc1OCCNCC1COC(c2ccccc2)(c2ccccc2)OC1.O=C(O)C(=O)O`
Data returned: 30 min

====

# protocol.description: Ratio of drug level in brain to plasma in Sprague-Dawley rat at 10 mg/kg, po measured upto 480 mins by LC/MS-MS analysis
# Format: ADME, organism-based
# condition.info: read-out: BPR
result.type: Kp at 8 h
Enter the number alone.

Data request: Return reported Kp at 8 h; argument: `COc1ccccc1OCCNCC1COC(c2ccccc2)(c2ccccc2)OC1.O=C(O)C(=O)O`
Data returned: 420
